The measurements presented in this section are drawn from ChEMBL document CHEMBL1140177.

Assay: Half life in rhesus monkey at 10 mg/kg, po and 1 mg/kg, iv
Format: ADME, organism-based, Macaca mulatta
Details: in vivo
QUANTITY_MEASURED: half-life (h)

> print(dat)
                                test.smiles  experimental.value
1  N#Cc1cc(Cl)cc(Oc2cc(OCc3n[nH]c4ncccc34)ccc2Cl)c1                 8.2

====

Assay: AUC in Beagle dog at 2 mg/kg, po
Assay type: ADME, organism-based, Canis lupus familiaris
Design: dose 2 mg/kg, route oral
Settings: plasma
QUANTITY_MEASURED: AUC (µM·h)

> print(dat)
                                test.smiles  experimental.value
1  N#Cc1cc(Cl)cc(Oc2cc(OCc3n[nH]c4ncccc34)ccc2Cl)c1                 1.6

====

Experiment: Clearance in rhesus monkey at 10 mg/kg, po and 2 mg/kg, iv
Type: ADME, organism-based, Macaca mulatta
Settings: in vivo
QUANTITY_MEASURED: clearance (mL/min/kg)

> print(dat)
                                test.smiles  quantity.measured  units.of.measure  experimental.value
1  N#Cc1cc(Cl)cc(Oc2cc(OCc3n[nH]c4nc(N)ccc34)ccc2Cl)c1          clearance         mL/min/kg                15.8

====

Target: Human immunodeficiency virus type 1 reverse transcriptase (Human immunodeficiency virus 1, UniProt Q72547, Y181C)
Assay: Inhibition of HIV1 RT polymerase Y181C mutant by SPA
# IC50 listing for each entry below
QUANTITY_MEASURED: IC50 (nM)

> print(dat)
                                test.smiles  quantity.measured  units.of.measure  experimental.value
1  N#Cc1cc(Cl)cc(Oc2cc(OCc3n[nH]c4cnccc34)ccc2Cl)c1               IC50                nM                 3.9
2  N#Cc1cc(Cl)cc(Oc2cc(OCc3n[nH]c4cccnc34)ccc2Cl)c1               IC50                nM                 740
3  N#Cc1cc(Cl)cc(Oc2cc(OCc3n[nH]c4ncccc34)ccc2Cl)c1               IC50                nM                 0.2
4  N#Cc1cc(Cl)cc(Oc2cc(OCc3n[nH]c4ccncc34)ccc2Cl)c1               IC50                nM                 6.2

====

Experiment: Volume of distribution in rhesus monkey at 10 mg/kg, po and 1 mg/kg, iv
Format: ADME, organism-based, Macaca mulatta
Conditions: in vivo
QUANTITY_MEASURED: Vd (L/kg)

> print(dat)
                                test.smiles  quantity.measured  experimental.value
1  N#Cc1cc(Cl)cc(Oc2cc(OCc3n[nH]c4ncccc34)ccc2Cl)c1                 Vd                 4.4

====

System: Human immunodeficiency virus 1
Assay: Antiviral activity against HIV1 with reverse transcriptase K103N/Y181C/G190A mutant in presence of 40% normal human serum
Format: functional, organism-based
QUANTITY_MEASURED: IC50 (µM)

> print(dat)
                                test.smiles  experimental.value
1  N#Cc1cc(Cl)cc(Oc2cc(OCc3n[nH]c4nc(N)ccc34)ccc2Cl)c1              0.0983
